Where do the numbers come from? From PubChem BioAssay AID179.

tested on: CEM cells HIV-1 protection, formazan growth assay; assay: NCI AIDS Antiviral Assay;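 active = compounds giving half or more protection of infected cells from virus-caused growth loss, again on retest; inactive = the rest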
Valid outcomes are listed here; reply with one: active, inactive

These recorded examples may help you get a feel for the data.
compound	category.label
CC[C@](O)(CC(=O)O[C@H]1C(=O)O[C@@H]2C[C@H]3C(C)=CC(=O)[C@@H](O)[C@]3(C)[C@H]3[C@@]4(O)OC[C@]32[C@@H]1[C@@H](C)[C@H]4O)C(C)C	inactive
Cc1ccc(-c2cc(-c3ccco3)c(C#N)c(=O)n2C2OC(OC(=O)c3ccccc3)C(OC(=O)c3ccccc3)C2OC(=O)c2ccccc2)cc1 (stereo not drawn)	inactive
Cc1cc(O)c(C=NC(=S)c2ccncc2)c(=O)o1	inactive
CC(=O)OCCOCn1c2c(c(=O)[nH]c1=O)CCC2	inactive

Recorded test call requested for `COc1ccc(-c2c(O)c3c(OC)cc(OC)cc3oc2=O)cc1` inactive

Recorded test call requested for CC12CCC(=O)N1c1cnccc1N2 (stereo not drawn) inactive

Recorded test call requested for `CC(C)C(OC(=O)c1ccc(NCC2=CC(=O)C=CC2=O)cc1)C(C)C` inactive

Recorded test call requested for O=C1CCCCC1C1(O)C(=O)Nc2cc(F)ccc21 (stereo not drawn) inactive

Recorded test call requested for `CCCCCCSc1nc(COC(=O)NC)c(COC(=O)NC)n1C` inactive

Recorded test call requested for `CCc1nc2c(O)ccc(O)c2nc1C` inactive

Recorded test call requested for Cc1ccc(S(=O)(=O)C2=Cc3ccc(C(F)(F)F)cc3C2(O)c2cccc(C(F)(F)F)c2)cc1 (stereo not drawn) inactive

Recorded test call requested for O=CC(O)C(O)C(O)C1CNC(=S)O1 (stereo not drawn) inactive

Recorded test call requested for COc1c(Cl)cc(C(=CCCCCN[C@H]2CC[C@@]3(C)[C@@H](CC[C@@H]4[C@@H]3CC[C@]3(C)[C@@H](C(C)CCCC(C)C)CC[C@@H]43)C2)c2cc(Cl)c(OC)c(C(=O)O)c2)cc1C(=O)O (stereo partly drawn) inactive

Recorded test call requested for `CSc1nc2[nH]c(=O)c(C)nc2c(=O)[nH]1` inactive

Recorded test call requested for [N-]=[N+]=NC1C(O)C(O)C(O)C(O)C1O (stereo not drawn) inactive
